# protocolSummary: Protein binding in human plasma at 5 uM measured after 5 hrs by rapid equilibrium dialysis method
# Assay type: ADME, cell-free
# conditionParameters: read-out: PPB (converted)
endpointLabel: fraction unbound at 5 h, 5 µM
Answers are plain numbers.

Give the reported value of fraction unbound at 5 h, 5 µM for this record: C[C@@H]1CN([C@@H](C)CO)S(=O)(=O)c2ccc(C#Cc3cccc(F)c3)cc2O[C@H]1CN(C)C(=O)NC1CCCCC1
0.005

====

# systemName: UniProtKB O75874
pIC50: −log10 of the molar value.
endpointLabel: pIC50

Give the reported value of pIC50 for this record: C[C@@H]1CN([C@@H](C)CO)S(=O)(=O)c2ccc(C#Cc3cccc(F)c3)cc2O[C@H]1CN(C)C(=O)NC1CCCCC1
< 4.70

====

# protocolSummary: Half life in mouse liver microsomes at 1 uM by LC-MS/MS analysis
# Assay type: ADME
endpointLabel: half-life at 1 µM (s)
One number for each entry, in s.

Give the reported value of half-life at 1 µM for this record: C[C@@H]1CN([C@@H](C)CO)S(=O)(=O)c2ccc(C#Cc3cccc(F)c3)cc2O[C@H]1CN(C)C(=O)NC1CCCCC1
42

====

# systemName: Isocitrate dehydrogenase [NADP] cytoplasmic (Homo sapiens, UniProt O75874, R132H)
# Sequence (O75874 2-414 R132H limits assumed): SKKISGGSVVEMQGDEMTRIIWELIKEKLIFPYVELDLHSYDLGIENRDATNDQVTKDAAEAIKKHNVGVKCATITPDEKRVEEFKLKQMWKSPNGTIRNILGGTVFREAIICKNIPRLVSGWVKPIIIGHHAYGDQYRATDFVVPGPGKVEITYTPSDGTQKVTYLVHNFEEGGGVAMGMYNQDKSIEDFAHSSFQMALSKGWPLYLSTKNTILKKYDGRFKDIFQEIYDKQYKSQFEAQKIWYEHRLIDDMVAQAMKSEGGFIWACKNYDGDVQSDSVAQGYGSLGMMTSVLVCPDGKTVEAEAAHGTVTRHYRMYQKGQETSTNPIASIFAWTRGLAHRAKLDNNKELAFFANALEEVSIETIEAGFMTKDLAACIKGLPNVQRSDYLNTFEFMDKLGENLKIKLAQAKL
# protocolSummary: Inhibition of human C-terminal His8-tagged IDH1-R132H mutant expressed in Escherichia coli Rosetta assessed as inhibition of ketoreductase activity by measuring NADPH consumption preincubated for 60 mins followed by addition of alpha-KG as substrate measured after 50 mins in presence of NADPH and Mg2+ by resazurin based diaphorase-coupled fluorescence assay
endpointLabel: log10(IC50) (log10 of the value in µM)
Friendly reminder: values = log10 of IC50, unit µM.

{"itemSmiles": "C[C@@H]1CN([C@@H](C)CO)S(=O)(=O)c2ccc(C#Cc3cccc(F)c3)cc2O[C@H]1CN(C)C(=O)NC1CCCC1", "log10(IC50)": -1.10}
{"itemSmiles": "C[C@@H]1CN([C@@H](C)CO)S(=O)(=O)c2ccc(C#Cc3cccc(F)c3)cc2O[C@@H]1CN(C)C(=O)NC1CCCCC1", "log10(IC50)": 0.59}

# per-item lookup of log10(IC50); items listed below
1. C[C@@H]1CN([C@H](C)CO)S(=O)(=O)c2ccc(C#Cc3cccc(F)c3)cc2O[C@H]1CN(C)C(=O)NC1CCCCC1
2. C[C@@H]1CN([C@@H](C)CO)S(=O)(=O)c2ccc(C#Cc3cccc(F)c3)cc2O[C@H]1CN(C)C(=O)OC(C)(C)C
3. C#Cc1ccc2c(c1)O[C@@H](CN(C)C(=O)NC1CCCCC1)[C@H](C)CN([C@@H](C)CO)S2(=O)=O
4. C[C@@H]1CN([C@@H](C)CO)S(=O)(=O)c2ccc(C#Cc3cccc(F)c3)cc2O[C@H]1CN(C)C(=O)C1CCOCC1
5. Cc1noc(C)c1NC(=O)N(C)C[C@@H]1Oc2cc(C#Cc3cccc(F)c3)ccc2S(=O)(=O)N([C@@H](C)CO)C[C@H]1C
6. C[C@@H]1CN([C@@H](C)CO)S(=O)(=O)c2ccc(/C=C/c3ccccc3)cc2O[C@H]1CN(C)C(=O)NC1CCCCC1
7. C[C@@H]1CN([C@@H](C)CO)S(=O)(=O)c2ccc(C#Cc3cccc(F)c3)cc2O[C@H]1CN(C)CCC1CCNCC1

[-0.22, 0.20, 0.89, 0.90, 1.04, -0.72, 0.87]
